Attribution: patent US20080280890A1

Where a name gives a salt, the structure may show the parent alone.
observed.property: melting point

INSERT INTO measurements (compound, test_value) VALUES
  ('CC(C)(C)OC(=O)c1nsnc1OC1CC(C)(C)N(O)C(C)(C)C1.Cl', '197 °C (dec.)'),
  ('Cc1nsnc1OCC1=CC(C)(C)N(O)C1(C)C (as salt: hydrochloride)', '173.2 °C'),
  ('CC1(C)CC(NC(=O)N2CCOCC2)CC(C)(C)N1O.Cl', '158.1 °C (dec.)'),
  ('CC1(C)COCC(C)(C)N1O.Cl [Compound 20, 3,3,5,5-1-hydroxy-tetramethylmorpholine]', '184.6 °C (dec.)'),
  ('CC1C(O)C(C)C(C)(C)N(O)C1(C)C.Cl (stereo not drawn)', '191.5 °C (dec.)'),
  ('CC1(C)CC(Oc2nsnc2C#N)CC(C)(C)N1O (as salt: hydrochloride)', '179.2 °C (dec.)'),
  ('CC1(C)C=C(CO)C(C)(C)N1O (as salt: chloride)', '141.9 °C (dec.)'),
  ('CC1(C)CC(C#N)CC(C)(C)N1O.Cl', '186 °C (dec.)'),
  ('CC1(C)COC(=O)C(C)(C)N1O.Cl', '145 °C (dec.)');
